Can you tell me IC50 of HGF stimulated c-Met phosphorylation in A549 cells for the items I'm about to list?
TEST_TARGET: recombinant human HGF (hepatocyte growth factor) (human, UniProt P14210 32-728)
Sequence (P14210 32-728 limits assumed): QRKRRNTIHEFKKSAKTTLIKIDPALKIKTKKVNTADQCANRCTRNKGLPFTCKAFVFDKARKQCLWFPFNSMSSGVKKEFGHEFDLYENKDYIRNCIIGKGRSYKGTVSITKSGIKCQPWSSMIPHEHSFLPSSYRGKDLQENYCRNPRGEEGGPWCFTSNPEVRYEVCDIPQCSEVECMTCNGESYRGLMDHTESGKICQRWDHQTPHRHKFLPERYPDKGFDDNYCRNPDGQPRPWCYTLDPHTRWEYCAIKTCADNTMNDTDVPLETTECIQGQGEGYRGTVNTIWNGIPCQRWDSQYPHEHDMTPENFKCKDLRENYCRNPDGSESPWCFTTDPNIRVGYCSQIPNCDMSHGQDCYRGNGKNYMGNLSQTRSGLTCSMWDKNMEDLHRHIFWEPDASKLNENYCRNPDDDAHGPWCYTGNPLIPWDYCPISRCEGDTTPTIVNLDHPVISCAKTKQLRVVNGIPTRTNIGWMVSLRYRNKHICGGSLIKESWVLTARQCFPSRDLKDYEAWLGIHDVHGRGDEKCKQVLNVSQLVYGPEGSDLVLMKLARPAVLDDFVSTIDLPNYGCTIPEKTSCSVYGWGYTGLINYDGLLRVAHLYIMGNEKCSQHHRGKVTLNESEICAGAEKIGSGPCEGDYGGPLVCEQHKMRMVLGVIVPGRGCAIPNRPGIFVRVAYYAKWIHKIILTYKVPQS
ASSAY_PROCEDURE: cell-based or functional assay
Numbers only, in nM.

Solved cases (2 shown):
INSERT INTO results (binder, reported) VALUES
  ('DARPin #57 (designed binder) MRGSHHHHHHGSDLGKKLLEAARAGQDDEVRILMANGADVNAHDYLGLTPLHLAASDGHLEIVEVLLKHGADVNAYDYNGLTPLHLAANNGHLEIVEVLLKYGADVNAFDVAGYTPLHLAAYFGHLEIVEVLLKYGADVNAQDKFGKTAFDISIDNGNEDLAEILQKLN', 1.72),
  ('DARPin #41 (designed binder) MRGSHHHHHHGSDLGKKLLEAARAGQDDEVRILMANGADVNAKYEDGLTPLHLAAFYGHLEIVEVLLRHGADVNATDAWGHTPLHLAAYLGHLEIVEVLLKYGADVNAEDTEGYTPLHLAAMDGHLEIIEVLLKHGADVNAQDKFGKTAFDISIDNGNEDLAEILQKLN', 0.13);

INPUT: Data request, read-out IC50 of HGF stimulated c-Met phosphorylation in A549 cells, for DARPin #60 (designed binder) MRGSHHHHHHGSDLGMKLLEAARAGQDDEVRILMANGADVNAHDTWGLTPLHLAAFHGHQEIVEVLLKHGADVNAQDFYGKTPLHLAALRGHLEIVEVLLKYGADVNAQDQFGKTAFDISIDNGNEDLAEILQKLN
OUTPUT: 0.05
